In this section, each of the sequences is paired with its reported PBM binding z-score.
tested on: LXRb:RXRa (NR concentration 270 nM, RXRa partner concentration 90 nM); experiment: PBM binding z-score (relative to random genomic background probes); higher = stronger binding; sequences stand for … in GC…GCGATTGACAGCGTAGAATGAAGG
Form: value (number only, do not type unit).

CTCGAGAGGTCGTGCTCAGGTGAGTATACCAAAC ... 3.32
CAAAGTAGGTCACAGAGGTCAAAGTCCGTGCGTA ... 6.5

Let's switch to this sequence now.
I'd like to know its PBM binding z-score. The sequence in question is `ATCGAAAGGTCGAGGTGAGTTTAGAGAAAGGGAA`
2.76

----------
tested on: PPARg:RXRa IVT, anti-PPARg (NR concentration 270 nM, RXRa partner concentration 90 nM); assay: PBM binding z-score (relative to random genomic background probes); higher = stronger binding; sequences stand for … in GC…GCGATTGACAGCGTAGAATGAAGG
assay readout: PBM binding z-score
Form: value (number only, do not type unit).

Worked examples follow.
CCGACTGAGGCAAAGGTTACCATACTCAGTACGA ... 2.47
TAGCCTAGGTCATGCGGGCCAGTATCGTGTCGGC ... 2.82

Let's switch to this sequence now.
Which PBM binding z-score is reported with PPARg:RXRa IVT, anti-PPARg (NR concentration 270 nM, RXRa partner concentration 90 nM) for this entry: `CCGACTGGGGCAATGGTTACCATACTCAGTACGA` ?
3.14

----------
In this section, each of the sequences is paired with its reported PBM binding z-score.
test system: PPARg DBDmut:RXRa IVT, anti-PPARg (DBD mutation: PPARg1 K132A/R137A, NR concentration 270 nM, RXRa partner concentration 90 nM); experiment: PBM binding z-score (relative to random genomic background probes); higher = stronger binding; sequences stand for … in GC…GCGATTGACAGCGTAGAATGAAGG
Form: value (number only, do not type unit).

Worked examples follow.
GTTGCTAGGTCAGGTTGGTCAGCTAACGGGTACG ... 0.283
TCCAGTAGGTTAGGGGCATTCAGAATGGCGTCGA ... -0.472
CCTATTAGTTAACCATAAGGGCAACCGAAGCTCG ... 0.701
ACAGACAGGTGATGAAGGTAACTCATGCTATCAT ... -0.0414
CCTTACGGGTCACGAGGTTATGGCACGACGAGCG ... 1.26

I'd like to know its PBM binding z-score. The sequence in question is `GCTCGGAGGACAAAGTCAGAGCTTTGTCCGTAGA`
-0.892

I'd like to know its PBM binding z-score. The sequence in question is `CCGACTGGGGCAGAAGGTTACCATAAGCCAGCCC`
-0.993

I'd like to know its PBM binding z-score. The sequence in question is `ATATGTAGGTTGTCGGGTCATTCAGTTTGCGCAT`
1.87

I'd like to know its PBM binding z-score. The sequence in question is `TTACCAAGGTGAAGGTCGTAGATCCCTCTGTAGA`
-0.72

I'd like to know its PBM binding z-score. The sequence in question is `ACTAGCAGGCCAAGGCTCACTCAAGATTAGTCCG`
-0.648

I'd like to know its PBM binding z-score. The sequence in question is `CCTTAAGGGTCAAGGTTATAGCACGGGTGGTACG`
0.0433
